# System: organophosphorous agent resistant two-spotted spider mites
# method: Effect on Two-spotted Spider Mite (spray on kidney bean leaves)
# Type: in vivo
# assay-setup: 125 ppm, water dispersible powder of Formulation Example 1 sprayed, 17 female adults, 25° C., 65% humidity, 3 days
# Excerpt: Effect on Two-spotted Spider Mite 17 female adults of organophosphorous agent resistant two-spotted spider mites were inoculated onto the first leaves of kidney beans seeded onto 3.5 inch pots and germinated 7 to 10 days before, onto which each of liquid agents, diluted with water so as to adjust the respective concentration of the chemical compounds to 125 ppm according to the formulation of the water dispersible powder shown in the aforementioned Formulation Example 1, was sprayed. […]
quantity-measured: rate of killed adults (%)
State just the number; it will be interpreted in %.

These solved cases illustrate the format of a correct answer.
{"molecule": "CC(C)=NOc1cc(C(F)(F)F)ccc1OC1CC2CCC(C1)N2c1ccc(C(F)(F)F)cn1 (stereo not shown) [2-212]", "rate of killed adults [%]": 100}
{"molecule": "CCCOc1cc(C(F)(F)F)ccc1OC1CC2CCC(C1)[N+]2([O-])c1ccc(C(F)(F)F)cn1 (stereo not shown) [2-84]", "rate of killed adults [%]": 100}
{"molecule": "FC(F)(F)c1ccc(N2CC3CCC(C2)C3Oc2ccc(C(F)(F)F)cc2C2CCCO2)nc1 (stereo not shown) [5-237]", "rate of killed adults [%]": 100}
{"molecule": "CCCOc1cc(C(F)(F)F)ccc1O[C@@H]1[C@@H]2CC[C@H]1CN(c1ccc(C(F)F)cn1)C2 [5-99]", "rate of killed adults [%]": 100}
{"molecule": "COCCc1cc(C(F)(F)F)ccc1O[C@@H]1[C@@H]2CC[C@H]1CN(c1ccc(C(F)(F)F)cn1)C2 [5-246]", "rate of killed adults [%]": 100}

Below: the item to evaluate.
(Q) Record request: rate of killed adults value, item COC(=O)c1cc(C(F)(F)F)ccc1O[C@@H]1[C@@H]2CC[C@H]1CN(c1ccc(C(F)(F)F)cn1)C2 [5-243]
(A) 100

====

# System: organophosphorous agent resistant two-spotted spider mites
# method: Effect on Two-spotted Spider Mite (spray on kidney bean leaves)
# Assay type: in vivo
# assay-setup: 125 ppm, water dispersible powder of Formulation Example 1 sprayed, 17 female adults, 25° C., 65% humidity, 3 days
quantity-measured: rate of killed adults (%)
State just the number; it will be interpreted in %.

{"compound": "FC(F)(F)c1ccc(N2C[C@H]3CC[C@@H](C2)[C@@H]3Oc2ccc(C(F)(F)F)cc2OCC2CC2)nc1 [5-116]", "rate of killed adults (%)": 100}
{"compound": "CCOC(C)OCc1cc(C(F)(F)F)ccc1OC1C2CCC1CN(c1ccc(C(F)(F)F)cn1)C2 (centres unmarked) [5-229]", "rate of killed adults (%)": 100}
{"compound": "CC(COc1cc(C(F)(F)F)ccc1OC1C2CCC1CN(c1ccc(C(F)(F)F)cn1)C2)=NO (centres unmarked) [5-183]", "rate of killed adults (%)": 100}
{"compound": "COCc1cc(C(F)(F)F)ccc1OC1CCN(c2ccc(C(F)(F)F)cn2)CC1 [1-63]", "rate of killed adults (%)": 100}
{"compound": "O=C(OCC(F)(F)F)c1cc(C(F)(F)F)ccc1OC1CC2CCC(C1)N2c1ccc(C(F)(F)F)cn1 (centres unmarked) [2-240]", "rate of killed adults (%)": 100}
{"compound": "CCCOc1cc(C(F)(F)F)ccc1OC1CCN(c2ccc(C(F)(F)F)cn2)CC1CC (centres unmarked) [1-186]", "rate of killed adults (%)": 100}

(Q) Notebook entry, organophosphorous agent resistant two-spotted spider mites assay: rate of killed adults of CCC(C)OCc1cc(C(F)(F)F)ccc1O[C@@H]1[C@@H]2CC[C@H]1CN(c1ccc(C(F)(F)F)cn1)C2 (some centres unmarked) [5-242] = ?
(A) 100

(Q) Notebook entry, organophosphorous agent resistant two-spotted spider mites assay: rate of killed adults of C#CCOc1cc(C(F)(F)F)ccc1OC1CC2CCC(C1)N2c1ccc(C(F)(F)F)cn1 (centres unmarked) [2-143] = ?
(A) 100
